The measurements presented in this section are drawn from patent US6706700B2.

System: human androgen receptor
assay notes: androgenic activity rating (procedures described above; which test underlies the rating is not stated)
Design: key: −: no androgenic activity found; +: androgenic activity found; ++: high androgenic activity; +++: excellent androgenic activity; prodrug
test settings: compounds of the invention; rating scheme of Example 18
measurement label: Res. (androgenic activity)

C[C@@H]1CC2=C[C@@H](O)CC[C@@H]2[C@H]2CC[C@]3(C)[C@](O)(CO)C[C@H]4C[C@]43[C@@H]21 | +
CC[C@@H]1CC2=CC(=O)CC[C@@H]2[C@H]2CC[C@]3(C)[C@H](CO)C[C@H]4C[C@]43[C@H]12 | ++
CC(=O)OC[C@]1(F)C[C@H]2C[C@]23[C@H]2[C@H](CC[C@]13C)[C@H]1CCC(=O)C=C1C[C@H]2C | ++
C[C@@H]1CC2=CC(=O)CC[C@@H]2[C@H]2CC[C@]3(C)[C@](O)(CO)C[C@H]4C[C@]43[C@@H]21 | +
CC(=O)OC[C@@H]1C[C@H]2C[C@]23[C@H]2[C@H](CC[C@]13C)[C@H]1CCC(=O)C=C1C[C@H]2C | ++
C[C@@H]1CC2=CC(=O)CC[C@@H]2[C@H]2CC[C@]3(C)[C@H](C(C)(C)O)C[C@H]4C[C@]43[C@@H]21 | +
CC1=C2C[C@@H](C)[C@@H]3[C@H](CC[C@]4(C)[C@H](CO)C[C@H]5C[C@@]534)[C@H]2CCC1=O | ++

q: State the recorded Res. (androgenic activity) for this entry: C[C@@H]1CC2=CC(=O)CC[C@@H]2[C@H]2CC[C@]3(C)[C@H](CO)C[C@H]4C[C@]43[C@@H]21
a: +++
